B1: ADD1 (parent)
chain: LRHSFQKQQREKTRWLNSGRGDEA

variants of: B1; assay: protein stability index of a GFP-peptide fusion (GPS, HEK-293T) (PSI 1-6); higher = more stable; conditions: c terminus: a fixed tail appended;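 further: lentivirally expressed fusions sorted by FACS into six bins by GFP to DsRed ratio, PSI derived from sequencing read proportions per bin multiplied by bin number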
measuredAttribute: protein stability index
Returns: the value as a bare number; no unit string appended.

Entry K7G has what protein stability index?
4.57

Entry D22M has what protein stability index?
3.47

Entry T13K has what protein stability index?
3.91

Entry T13A has what protein stability index?
3.53

Entry T13I has what protein stability index?
4.01

Entry S4P has what protein stability index?
3.3

Entry S4L has what protein stability index?
2.26

Entry Q6C has what protein stability index?
2.27

Entry N17I has what protein stability index?
2.7

Entry K7L has what protein stability index?
3.89

Entry T13Y has what protein stability index?
2.93

Entry L16Q has what protein stability index?
4.01

Entry G19M has what protein stability index?
3.57

Entry T13E has what protein stability index?
4.27

Entry E23G has what protein stability index?
3.64

Entry H3R has what protein stability index?
3.61

Entry N17C has what protein stability index?
3.15

Entry L1Y has what protein stability index?
3.75

Entry R20W has what protein stability index?
3.26

Entry H3M has what protein stability index?
3.29

Entry Q9L has what protein stability index?
3.23

Entry R14H has what protein stability index?
3.98

Entry Q9V has what protein stability index?
3.35

Entry T13D has what protein stability index?
4.12

Entry G21C has what protein stability index?
3.21

Entry Q9S has what protein stability index?
3.64

Entry H3C has what protein stability index?
2.31

Entry R20D has what protein stability index?
4.88

Entry R10D has what protein stability index?
4.23

Entry S18F has what protein stability index?
2.87

Entry Q6E has what protein stability index?
4.14

Entry W15M has what protein stability index?
4.25

Entry E11S has what protein stability index?
3.13

Entry G19T has what protein stability index?
3.37

Entry R14E has what protein stability index?
4.59

Entry R2T has what protein stability index?
4.05

Entry G19Y has what protein stability index?
3

Entry F5A has what protein stability index?
4.44

Entry R20Y has what protein stability index?
3.47
